Give log10(IC50) for every item shown.
Tested on: CRL-2813
protocol: Cell growth assay (sulforhodamine B), CRL-2813 cells
Type: cell-based, human
condition details: Homo sapiens, CRL2813, 120 h, 5 days, SRB
Protocol: Adherent mouse (KLN) and human solid tumor cells (CRL-2351, and CRL-2813) were plated in 96-well plates and maintained for 5 days in the presence of 0.54 to 6 μM of individual compound, and cell proliferation was measured by the sulforhodamine B (SRB) assay as described in ref. 11: briefly, cells were fixed in 10% cold trichloroacetic acid at 4° C. for 1 h, extensively washed with double-distilled H2O and air-dried. […]
Please note: log10 values; quantity IC50; unit µM.

log10(IC50) recorded for this molecule, CCN(CC)CCOc1ccc(C(C)(C)C)cc1C1(c2cc(C(C)(C)C)ccc2OCCN(CC)CC)C(=O)N(CCN(CC)CC)c2ccccc21 [HY296] , is -0.14

log10(IC50) recorded for this molecule, CC(C)(C)c1ccc(O)c(C2(c3cc(C(C)(C)C)ccc3O)C(=O)Nc3c2ccc(F)c3F)c1 [HY036] , is 0.43

log10(IC50) recorded for this molecule, CC(C)(C)c1ccc(OCCN2CCCC2)c(C2(c3cc(C(C)(C)C)ccc3OCCN3CCCC3)C(=O)Nc3ccccc32)c1 [HY191] , is -0.10

log10(IC50) recorded for this molecule, CC(C)(C)c1ccc(O)c(C2(c3cc(C(C)(C)C)ccc3OCCN3CCCC3)C(=O)N(CCN3CCCC3)c3ccccc32)c1 (stereo not shown) [HY093] , is 0.86

log10(IC50) recorded for this molecule, CC(=O)OCCOc1ccc(C(C)(C)C)cc1C1(c2cc(C(C)(C)C)ccc2O)C(=O)Nc2ccccc21 (stereo not shown) [HY084] , is 0.20

log10(IC50) recorded for this molecule, CN1CCN(CCOc2ccc(C(C)(C)C)cc2C2(c3cc(C(C)(C)C)ccc3O)C(=O)Nc3ccccc32)CC1 (stereo not shown) [HY080] , is 0.15

log10(IC50) recorded for this molecule, CC(C)(C)c1ccc(OCCN2CCCC2)c(C2(c3cc(C(C)(C)C)ccc3OCCN3CCCC3)C(=O)N(CCN3CCCC3)c3ccccc32)c1 [HY193] , is 0.17

----------
Tested on: CRL-2351
protocol: Cell growth assay (sulforhodamine B), CRL-2351 cells
Assay type: cell-based, human
condition details: 5 days, SRB
Protocol: Adherent mouse (KLN) and human solid tumor cells (CRL-2351, and CRL-2813) were plated in 96-well plates and maintained for 5 days in the presence of 0.54 to 6 μM of individual compound, and cell proliferation was measured by the sulforhodamine B (SRB) assay as described in ref. 11: briefly, cells were fixed in 10% cold trichloroacetic acid at 4° C. for 1 h, extensively washed with double-distilled H2O and air-dried. […]
Give IC50 for every item shown.
# number only, unit µM dropped from output

IC50 recorded for this compound, CCN(CCO)CCOc1ccc(C(C)(C)C)cc1C1(c2cc(C(C)(C)C)ccc2OCCN2CCOCC2)C(=O)N(CCN(C)C)c2ccccc21 (stereo not drawn) , is 2.3

IC50 recorded for this compound, CCOC(=O)COc1ccccc1C1(c2cc(C(C)(C)C)ccc2OCC(=O)OCC)C(=O)Nc2ccccc21 (stereo not drawn) , is 2.1

IC50 recorded for this compound, CN(C)CCN1C(=O)C(c2cc(C(C)(C)C)ccc2CCCN2CCCC2)(c2cc(C(C)(C)C)ccc2OCCN2CCCC2)c2ccccc21 (stereo not drawn) , is 0.2
